- test.system: T1, activated human complement C1s (human, UniProt P09871 16-688)
- T1 sequence: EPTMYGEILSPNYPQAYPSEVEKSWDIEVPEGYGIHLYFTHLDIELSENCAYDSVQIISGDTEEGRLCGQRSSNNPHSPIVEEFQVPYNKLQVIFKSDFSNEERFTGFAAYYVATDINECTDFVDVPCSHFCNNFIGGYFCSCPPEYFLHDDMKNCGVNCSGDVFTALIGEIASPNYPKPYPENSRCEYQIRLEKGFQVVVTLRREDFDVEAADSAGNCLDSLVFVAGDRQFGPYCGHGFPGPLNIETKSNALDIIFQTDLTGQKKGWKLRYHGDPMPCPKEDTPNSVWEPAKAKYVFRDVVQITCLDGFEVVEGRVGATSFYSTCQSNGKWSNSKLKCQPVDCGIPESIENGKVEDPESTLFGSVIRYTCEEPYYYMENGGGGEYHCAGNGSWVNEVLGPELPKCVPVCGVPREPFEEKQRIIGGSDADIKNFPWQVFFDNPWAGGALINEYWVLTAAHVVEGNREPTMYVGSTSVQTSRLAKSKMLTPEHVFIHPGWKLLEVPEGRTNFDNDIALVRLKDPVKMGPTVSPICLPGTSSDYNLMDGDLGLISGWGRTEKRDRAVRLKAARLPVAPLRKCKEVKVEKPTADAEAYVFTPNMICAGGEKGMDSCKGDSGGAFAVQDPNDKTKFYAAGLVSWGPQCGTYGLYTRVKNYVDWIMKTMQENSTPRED
- test.method.notes: cell-based or functional assay
experimental.readout: IC50 of classical complement pathway inhibition (commercial CP activation assay)
Kindly write the number and append the unit.

*Q* Sample humanized TNT005 variant VH variant 4+Vk variant 2 (antibody, V domains shown, also called VH variant 4 + VL variant 2) VH: QVQLVQSGAEVKKPGASVKVSCTASGFNIKDDYIHWVRQAPGQGLEWIGRIDPADGHTKYAPKFQVKVTITADTSTSTAYMELSSLRSEDTAVYYCARYGYGREVFDYWGQGTTVTVSS VL: DIVLTQSPDSLAVSLGERATISCKASQSVDYDGDSYMNWYQQKPGQPPKILIYDASNLESGIPARFSGSGSGTDFTLTISSLEPEDFAIYYCQQSNEDPWTFGGGTKVEIK — what was its IC50 of classical complement pathway inhibition (commercial CP activation assay)?
*A* 1.31 nM
